All values here come from PubChem BioAssay (Tox21).

Experiment: qHTS assay to identify small molecule antagonists of the farnesoid-X-receptor (FXR) signaling pathway - cell viability counter screen (AID 743221); further: nearly all actives have a fitted effect of over 50% in size
Conditions: FXR-bla HEK293T viability, CellTiter-Glo luminescence, 16 h; series mostly up to 62.6 µM
Results filed as inconclusive are left out. Activity calls are given as the source filed them. The call rests on the fitted dose curve; in most records, active means well fitted cell-killing curve with a large enough effect in the repeat runs (not every such curve was filed as active); inconclusive means weak or mixed curves, or effect the other way; inactive means no such curve, though single readings can be large or run the other way.
Pick one and only one: TRUE = active, FALSE = inactive

As a guide, the following entries are already answered.
OC/C(Br)=C(\Br)CO: FALSE
N#C/C(=C1\SCC(c2ccccc2Cl)S1)n1ccnc1 (stereo not given): FALSE

IN: Write down the call the test reported for this molecule. Item: O=C(CCCCCCCCC#CI)Oc1ccccc1
OUT: FALSE

IN: Given NC(=O)Nc1ccc(Cl)c(Cl)c1 , state the outcome it received in this test.
OUT: FALSE

IN: Which outcome did this test record for the molecule CCOC(=O)CC(=O)C(=O)OCC ?
OUT: FALSE

IN: Hi team, can someone confirm the assay call for CCCCCCCCSCCO ?
OUT: FALSE

IN: Can you look up the reported call for COCCOC for me?
OUT: FALSE
